- target-or-system: UniProtKB P06401
- Sequence (P06401 whole entry): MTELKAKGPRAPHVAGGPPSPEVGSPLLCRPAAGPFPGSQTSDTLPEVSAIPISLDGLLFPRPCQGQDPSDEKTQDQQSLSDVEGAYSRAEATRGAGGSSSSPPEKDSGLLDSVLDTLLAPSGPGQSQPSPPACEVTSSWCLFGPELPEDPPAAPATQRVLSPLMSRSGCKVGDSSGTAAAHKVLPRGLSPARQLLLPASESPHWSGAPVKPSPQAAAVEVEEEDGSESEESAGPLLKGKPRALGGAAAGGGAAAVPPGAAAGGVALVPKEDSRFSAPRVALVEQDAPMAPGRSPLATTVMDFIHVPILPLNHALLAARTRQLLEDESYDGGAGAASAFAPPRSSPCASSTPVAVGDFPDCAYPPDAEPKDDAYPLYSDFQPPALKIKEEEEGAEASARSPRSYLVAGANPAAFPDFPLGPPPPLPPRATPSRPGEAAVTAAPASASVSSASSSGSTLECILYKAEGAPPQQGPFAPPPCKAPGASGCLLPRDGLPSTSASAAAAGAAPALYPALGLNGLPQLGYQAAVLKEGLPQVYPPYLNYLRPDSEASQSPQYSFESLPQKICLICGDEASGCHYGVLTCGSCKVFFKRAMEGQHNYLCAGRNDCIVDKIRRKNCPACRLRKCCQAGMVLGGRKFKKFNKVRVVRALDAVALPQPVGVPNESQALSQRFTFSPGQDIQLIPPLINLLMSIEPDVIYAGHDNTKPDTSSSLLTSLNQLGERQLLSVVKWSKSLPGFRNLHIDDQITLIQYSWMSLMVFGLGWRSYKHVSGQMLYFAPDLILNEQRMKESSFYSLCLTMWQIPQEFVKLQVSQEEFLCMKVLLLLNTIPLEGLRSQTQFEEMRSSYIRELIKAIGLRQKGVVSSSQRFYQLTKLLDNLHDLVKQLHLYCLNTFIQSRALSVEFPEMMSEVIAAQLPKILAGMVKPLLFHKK
- experiment-notes: Dissociation constant for [3H]ORG2058 at human progesterone receptor at 298 K
endpoint: pKd
// field semantics: pKd = negative decimal log of concentration (mol/L)

Per the records, this molecule ( `CC[C@@H]1C[C@H]2[C@@H]3CCC4=CC(=O)CC[C@@H]4[C@H]3CC[C@]2(C)[C@H]1C(=O)CO` ) has pKd equal to 8.50

Where do these numbers come from? They come from ChEMBL document CHEMBL1142733.
